Just for reference, paper PMC7698842 is where these values come from.

- EXPERIMENT SUMMARY: Cytotoxicity toward Neuro-2a cells (MTT assay)
- Type: cell-based, mouse
- ASSAY CONTEXT: mouse, Neuro-2a neuroblastoma cells; Neuro-2a cell viability, 10 μM, 24 h; read-out: Cytotoxicity (MTT Assay) % of Control at 10 μM
MEASURED PARAMETER: activity at 24 h, 10 µM (%)
Note: unit % is implicit; provide only the numeric part.

Past entries and their recorded results:
- SMILES CODE: "CC(C)=CCC[C@@H](C)[C@H]1CC[C@]23C(=O)O[C@]4(CC[C@]12C)[C@]31O[C@H]1C[C@H]1C(C)(C)[C@@H](O)CC[C@@]14C"
  MEASURED PARAMETER: "activity at 24 h, 10 µM"
  MEASURED NUMBER: 96.9
- SMILES CODE: "CC(C)=CCC[C@@H](C)[C@H]1CC[C@@]2(C(=O)O)C3=C(CC[C@]12C)[C@@]1(C)CCC(=O)[C@@H](C)[C@@H]1CC3"
  MEASURED PARAMETER: "activity at 24 h, 10 µM"
  MEASURED NUMBER: 91.1
- SMILES CODE: "CC(C)=CCC[C@@H](C)[C@H]1CC[C@@]2(C(=O)O)C3=C(CC[C@]12C)[C@@]1(C)CCC(=O)C(C)(C)[C@@H]1CC3"
  MEASURED PARAMETER: "activity at 24 h, 10 µM"
  MEASURED NUMBER: 95.3
- SMILES CODE: "CC(=O)O[C@H]1CC[C@@]2(C)[C@@H](C[C@@H]3O[C@]34[C@]23CC[C@]2(C)[C@@H]([C@H](C)CCC=C(C)C)CC[C@@]42C(=O)O3)C1(C)C"
  MEASURED PARAMETER: "activity at 24 h, 10 µM"
  MEASURED NUMBER: 92.1

--- query ---
Ask: So what does the record say about activity at 24 h, 10 µM for CC(=O)O[C@H]1CC[C@]2(C)C3=C(CC[C@H]2C1(C)C)[C@]1(C(=O)O)CC[C@H]([C@H](C)CCC=C(C)C)[C@@]1(C)CC3 ?
Reply: 97.9
